Test system: ASPC1
Test: Antiproliferative activity against human ASPC1 cells harboring KRAS G12D mutant assessed as reduction in cell growth incubated for 72 hrs by MTT assay
Type: functional, cell-based
Settings: ASPC1, 72 h
measurement name: IC50 (nM)
Kindly answer with a numeric value in nM, unit omitted.

Kindly indicate its recorded IC50. Item: C=CC(=O)N1CCC(Oc2nc(Nc3ccc(N4CCN(CCO)CC4)cc3)ncc2Cl)CC1
2740

Look up and state reported IC50 for C=CC(=O)N1CCC(Oc2nc(Nc3ccc(N4CCN(C(C)=O)CC4)cc3OC)nc3ccsc23)CC1
480

Give the measured IC50 for C=CC(=O)N1CCC(Oc2nc(Nc3ccc(N4CCN(C)CC4)cc3)ncc2Cl)CC1
5840

Given the molecule C=CC(=O)N1CCC(Oc2nc(Nc3ccc(N4CCN(C)CC4)cc3OC)nc3ccsc23)CC1 , write its reported IC50.
650

For C=CC(=O)N1CCC(Oc2nc(Nc3cnn(C)c3)nc3ccsc23)CC1 , write its IC50.
710

Tell me IC50 reported for C=CC(=O)N1CCC(Oc2nc(Nc3ccc(N(C)CCN(C)C)cc3OC)nc3[nH]ccc23)CC1
5130

Provide only the value of recorded IC50 for C=CC(=O)N1CCC(Oc2nc(Nc3ccc(CN4CCC(CO)CC4)cc3)ncc2Cl)CC1
2180

----------
Could you please report measured pIC50 for the items listed next?
Target: Epidermal growth factor receptor (Homo sapiens, UniProt P00533, L858R/T790M)
Sequence (P00533 25-1210 T790M/L858R limits assumed): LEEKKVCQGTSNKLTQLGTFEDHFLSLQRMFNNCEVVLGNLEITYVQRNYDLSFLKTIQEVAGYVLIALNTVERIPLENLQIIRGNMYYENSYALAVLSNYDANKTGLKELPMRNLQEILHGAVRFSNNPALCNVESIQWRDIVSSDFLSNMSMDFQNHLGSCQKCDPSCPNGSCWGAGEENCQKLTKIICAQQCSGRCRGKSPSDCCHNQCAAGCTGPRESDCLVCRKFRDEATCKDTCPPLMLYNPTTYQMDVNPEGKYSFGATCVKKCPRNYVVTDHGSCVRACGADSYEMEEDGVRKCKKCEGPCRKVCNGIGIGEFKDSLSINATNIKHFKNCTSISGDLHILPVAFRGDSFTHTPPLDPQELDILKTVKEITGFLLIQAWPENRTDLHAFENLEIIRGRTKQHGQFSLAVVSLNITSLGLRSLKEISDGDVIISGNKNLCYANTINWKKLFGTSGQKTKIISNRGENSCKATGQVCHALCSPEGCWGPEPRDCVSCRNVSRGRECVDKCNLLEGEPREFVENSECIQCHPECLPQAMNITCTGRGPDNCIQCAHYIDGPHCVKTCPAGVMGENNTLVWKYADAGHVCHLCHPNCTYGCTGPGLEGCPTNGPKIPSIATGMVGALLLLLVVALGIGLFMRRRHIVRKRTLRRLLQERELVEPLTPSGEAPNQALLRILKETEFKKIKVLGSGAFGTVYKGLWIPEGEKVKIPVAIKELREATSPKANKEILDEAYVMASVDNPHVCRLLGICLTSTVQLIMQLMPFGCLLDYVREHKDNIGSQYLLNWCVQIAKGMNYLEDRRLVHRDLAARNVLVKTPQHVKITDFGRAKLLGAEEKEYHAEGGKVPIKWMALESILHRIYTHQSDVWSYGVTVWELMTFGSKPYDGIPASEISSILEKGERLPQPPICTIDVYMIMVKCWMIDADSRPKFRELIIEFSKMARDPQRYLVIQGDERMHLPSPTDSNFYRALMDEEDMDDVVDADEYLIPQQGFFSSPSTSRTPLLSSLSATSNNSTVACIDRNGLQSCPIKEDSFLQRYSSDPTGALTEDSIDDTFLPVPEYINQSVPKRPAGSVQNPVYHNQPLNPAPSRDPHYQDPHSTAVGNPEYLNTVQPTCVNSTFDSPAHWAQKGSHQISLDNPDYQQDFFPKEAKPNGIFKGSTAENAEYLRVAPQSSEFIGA
Assay: Inhibition of N-terminal GST-tagged human recombinant EGFR T790M/L858R mutant (695 to end residues) expressed in baculovirus-infected Sf9 cells using poly (4:1 Glu,Tyr) peptide as substrate incubated for 60 mins in presence of ATP by ADP-Glo kinase assay
Scale note: pIC50 = -log10(concentration in M).

Look up pIC50 of C=CC(=O)N1CCC(Oc2nc(Nc3ccc(N4CCN(C(C)=O)CC4)cc3OC)nc3ccsc23)CC1 and report it.
7.69

Give the measured pIC50 for C=CC(=O)N1CCC(Oc2nc(Nc3ccc(N4CCOCC4)cc3OC)nc3ccsc23)CC1
8.01

Tell me measured pIC50 for C=CC(=O)N1CCC(Oc2nc(Nc3ccc(CN4CCC(CO)CC4)cc3)ncc2Cl)CC1 please.
7.91

Specify reported pIC50 for the compound shown: C=CC(=O)N1CCC(Oc2nc(Nc3cnn(C)c3)nc3ccsc23)CC1
6.87

Determine its reported pIC50: C=CC(=O)N1CCC(Oc2nc(Nc3ccc(N4CCOCC4)cc3)nc3ccsc23)CC1
8.18

Answer with the recorded pIC50 of C=CC(=O)N1CCC(Oc2nc(Nc3ccn(C)n3)nc3ccsc23)CC1 only.
6.90

Supply pIC50 value. Item: C=CC(=O)N1CCC(Oc2nc(Nc3ccc(N4CCN(C)CC4)cc3)nc3[nH]ccc23)CC1
8.25

In one line, give reported pIC50 of the entry CCC(=O)N1CCC(Oc2nc(Nc3ccc(N4CCN(C)CC4)cc3)nc3ccsc23)CC1 .
6.45

Annotate the compound C=CC(=O)N1CCC(Oc2nc(Nc3ccc(N4CCN(CCO)CC4)cc3)ncc2Cl)CC1 with its measured pIC50.
7.38

----------
Assay: Cytotoxicity against human A-431 cells harboring wild type EGFR assessed as reduction in cell viability incubated for 72 hrs by MTT assay
Format: toxicity, cell-based
Bucketed by reported IC50 at 72 h, buckets being low (below 2 µM), intermediate (2 µM to below 4 µM), high (4 µM or more)

Which of the defined bands does the recorded IC50 at 72 h of C=CC(=O)N1CCC(Oc2nc(Nc3ccc(N(C)CCN(C)C)cc3OC)nc3[nH]ccc23)CC1 sit within?
high

Would you mind sorting C=CC(=O)N1CCC(Oc2nc(Nc3ccc(N4CCN(C(C)=O)CC4)cc3OC)nc3[nH]ccc23)CC1 into the appropriate category?
intermediate

Tag the class for C=CC(=O)N1CCC(Oc2nc(Nc3ccc(N4CCN(C)CC4)cc3)nc3ccsc23)CC1
high

Into which bin does this molecule go? C=CC(=O)N1CCC(Oc2nc(Nc3ccc(N4CCN(C)CC4)c(F)c3)nc3[nH]ccc23)CC1
low

Band for the recorded IC50 at 72 h of C=CC(=O)N1CCC(Oc2nc(Nc3ccc(N4CCN(C)CC4)cc3)ncc2Cl)CC1 ?
low

Please report the category associated with C=CC(=O)N1CCC(Oc2nc(Nc3ccc(N4CCN(C)CC4)c(F)c3)ncc2Cl)CC1 , nothing else.
intermediate

Dear colleague, I would appreciate it if you could identify the bin for C=CC(=O)N1CCC(Oc2nc(Nc3ccc(CN4CCC(CO)CC4)cc3)ncc2Cl)CC1 and reply at your convenience.
low

----------
Biological target: Epidermal growth factor receptor (Homo sapiens, UniProt P00533, L858R/T790M)
Test: Inhibition of N-terminal GST-tagged human recombinant EGFR T790M/L858R mutant (695 to end residues) expressed in baculovirus-infected Sf9 cells using poly (4:1 Glu,Tyr) peptide as substrate incubated for 60 mins in presence of ATP by ADP-Glo kinase assay
For each record, write down the corresponding IC50.

Identify the reported IC50 for the following entry. C=CC(=O)N1CCC(Oc2nc(Nc3ccc(N4CCN(C)CC4)cc3OC)nc3ccsc23)CC1
14.2 nM

Retrieve IC50 measured for C=CC(=O)N1CCC(Oc2nc(Nc3ccc(N4CCN(C)CC4)cc3OC)nc3[nH]ccc23)CC1 and print it.
12.3 nM

Respond only with IC50 recorded for C=CC(=O)N1CCC(Oc2nc(Nc3ccc(N(C)CCN(C)C)cc3OC)nc3[nH]ccc23)CC1
7.7 nM

Give IC50 for C=CC(=O)N1CCC(Oc2nc(Nc3ccc(N4CCN(C)CC4)c(F)c3)nc3[nH]ccc23)CC1
13.4 nM

----------
Assay: Cytotoxicity against human L02 cells assessed as reduction in cell viability incubated for 72 hrs by MTT assay
Format: toxicity, cell-based
measurement name: IC50 at 72 h (µM)
A number alone suffices; assume µM.

Read off the recorded IC50 at 72 h for C=CC(=O)N1CCC(Oc2nc(Nc3ccc(N4CCN(C)CC4)cc3)nc3ccsc23)CC1
8.45

Tell us which IC50 at 72 h value is on record for C=CC(=O)N1CCC(Oc2nc(Nc3ccn(C)n3)nc3ccsc23)CC1
16.7

Using the record for C=CC(=O)N1CCC(Oc2nc(Nc3ccc(CN4CCC(CO)CC4)cc3)ncc2Cl)CC1 , state its measured IC50 at 72 h.
2.12

Given C=CC(=O)N1CCC(Oc2nc(Nc3ccc(N4CCN(C)CC4)cc3)ncc2Cl)CC1 , respond with its IC50 at 72 h.
8.77

Check the records and state IC50 at 72 h for C=CC(=O)N1CCC(Oc2nc(Nc3cnn(C)c3)nc3ccsc23)CC1
8.92

Name the recorded IC50 at 72 h of the molecule listed here: C=CC(=O)N1CCC(Oc2nc(Nc3ccc(N4CCN(C(C)=O)CC4)cc3OC)nc3ccsc23)CC1
10.6

# return recorded IC50 at 72 h for entry C=CC(=O)N1CCC(Oc2nc(Nc3ccc(N4CCN(C)CC4)c(F)c3)ncc2Cl)CC1
5.38

----------
Target: Epidermal growth factor receptor (Homo sapiens, UniProt P00533)
Sequence (P00533 whole entry): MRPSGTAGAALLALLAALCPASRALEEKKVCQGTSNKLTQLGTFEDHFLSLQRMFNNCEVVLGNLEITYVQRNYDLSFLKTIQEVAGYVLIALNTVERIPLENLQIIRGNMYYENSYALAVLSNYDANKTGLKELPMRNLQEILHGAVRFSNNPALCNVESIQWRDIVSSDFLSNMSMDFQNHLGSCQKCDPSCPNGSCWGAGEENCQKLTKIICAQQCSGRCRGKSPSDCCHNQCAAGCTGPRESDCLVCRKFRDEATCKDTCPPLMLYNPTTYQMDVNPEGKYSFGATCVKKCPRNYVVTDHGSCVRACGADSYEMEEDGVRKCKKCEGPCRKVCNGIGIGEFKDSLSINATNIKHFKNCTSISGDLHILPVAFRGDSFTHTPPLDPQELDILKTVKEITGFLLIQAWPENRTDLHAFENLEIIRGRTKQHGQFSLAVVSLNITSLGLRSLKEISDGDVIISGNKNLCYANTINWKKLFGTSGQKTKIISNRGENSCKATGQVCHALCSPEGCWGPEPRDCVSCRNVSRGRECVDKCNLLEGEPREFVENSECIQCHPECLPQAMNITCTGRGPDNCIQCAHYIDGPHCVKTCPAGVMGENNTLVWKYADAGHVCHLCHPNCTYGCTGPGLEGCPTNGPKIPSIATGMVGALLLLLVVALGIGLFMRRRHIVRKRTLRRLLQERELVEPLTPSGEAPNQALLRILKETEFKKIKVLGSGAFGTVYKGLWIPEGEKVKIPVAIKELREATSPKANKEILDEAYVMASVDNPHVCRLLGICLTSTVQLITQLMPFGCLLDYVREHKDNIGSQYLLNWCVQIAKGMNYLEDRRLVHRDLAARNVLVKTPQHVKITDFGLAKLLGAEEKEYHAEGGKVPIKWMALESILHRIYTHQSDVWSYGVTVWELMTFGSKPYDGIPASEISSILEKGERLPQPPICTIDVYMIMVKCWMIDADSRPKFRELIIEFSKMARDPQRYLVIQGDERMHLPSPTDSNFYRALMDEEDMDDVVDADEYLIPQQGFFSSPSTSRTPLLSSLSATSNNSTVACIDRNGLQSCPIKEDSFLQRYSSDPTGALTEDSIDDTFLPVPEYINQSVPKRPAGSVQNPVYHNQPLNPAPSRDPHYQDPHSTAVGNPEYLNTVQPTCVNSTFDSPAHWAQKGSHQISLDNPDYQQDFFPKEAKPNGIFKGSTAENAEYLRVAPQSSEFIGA
Assay: Inhibition of N-terminal GST-tagged human recombinant wild type EGFR (695 to end residues) expressed in baculovirus-infected Sf9 cells using poly (4:1 Glu,Tyr) peptide as substrate incubated for 60 mins in presence of ATP by ADP-Glo kinase assay
measurement name: pIC50
In simple prose, pIC50 is minus the logarithm base ten of a concentration in moles per litre.

Tell us which pIC50 value is on record for C=CC(=O)N1CCC(Oc2nc(Nc3ccc(CN4CCC(CO)CC4)cc3)ncc2Cl)CC1
6.75

Assign pIC50 to the following record: C=CC(=O)N1CCC(Oc2nc(Nc3ccc(N4CCN(C)CC4)c(F)c3)nc3[nH]ccc23)CC1
6.92

Hello, please tell me recorded pIC50 for this one: C=CC(=O)N1CCC(Oc2nc(Nc3ccc(N(C)CCN(C)C)cc3OC)nc3[nH]ccc23)CC1
7.23

Identify measured pIC50 associated with C=CC(=O)N1CCC(Oc2nc(Nc3ccc(N4CCN(CCO)CC4)cc3)ncc2Cl)CC1
6.91

Please give the documented pIC50 of C=CC(=O)N1CCC(Oc2nc(Nc3ccc(N4CCN(C(C)=O)CC4)cc3OC)nc3[nH]ccc23)CC1
6.88

Respond only with pIC50 recorded for C=CC(=O)N1CCC(Oc2nc(Nc3ccc(N4CCN(C)CC4)cc3)nc3[nH]ccc23)CC1
7.44

Entry C=CC(=O)N1CCC(Oc2nc(Nc3ccc(N4CCN(C(C)=O)CC4)cc3OC)nc3ccsc23)CC1 needs its pIC50 filled in; supply it.
7.22

For the compound CCC(=O)N1CCC(Oc2nc(Nc3ccc(N4CCN(C)CC4)cc3)nc3ccsc23)CC1 , give its measured pIC50 value.
6.57

Recall and state the measured pIC50 for C=CC(=O)N1CCC(Oc2nc(Nc3ccc(N4CCN(C)CC4)cc3OC)nc3[nH]ccc23)CC1 .
7.43

Kindly indicate its recorded pIC50. Item: C=CC(=O)N1CCC(Oc2nc(Nc3cnn(C)c3)nc3[nH]ccc23)CC1
6.41
